target: mMC5R (Mus musculus, UniProt P41149); assay: cell-based
Sequence (P41149 whole entry): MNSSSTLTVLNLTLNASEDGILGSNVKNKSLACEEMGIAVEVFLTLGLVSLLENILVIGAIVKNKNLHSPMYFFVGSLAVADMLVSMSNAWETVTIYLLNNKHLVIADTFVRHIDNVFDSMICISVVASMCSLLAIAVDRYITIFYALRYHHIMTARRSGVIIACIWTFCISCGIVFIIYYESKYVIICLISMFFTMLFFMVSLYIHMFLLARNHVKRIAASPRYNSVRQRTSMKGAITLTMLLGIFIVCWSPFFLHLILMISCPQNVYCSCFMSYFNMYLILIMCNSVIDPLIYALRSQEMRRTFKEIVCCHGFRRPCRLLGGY
assay endpoint: EC50 (µM)

A = C[C@@H]1NC(=O)[C@H](CN)NC(=O)[C@H](Cc2ccccc2)NC(=O)[C@H](Cc2ccccc2)NC(=O)[C@H](CCCNC(=N)N)NC(=O)[C@@H]2CCCN2C(=O)[C@H]2CCCN2C(=O)[C@H](Cc2ccccc2)NC1=O [Peptide 2, c[Pro-Arg-Phe-Phe-Dap-Ala-Phe-DPro]]
B = C[C@@H]1NC(=O)[C@H](C)NC(=O)[C@H](Cc2ccccc2)NC(=O)[C@H](Cc2ccccc2)NC(=O)[C@H](CCCNC(=N)N)NC(=O)[C@@H]2CCCN2C(=O)[C@H]2CCCN2C(=O)[C@H](Cc2ccccc2)NC1=O [Peptide 3, c[Pro-Arg-Phe-Phe-Ala-Ala-Phe-DPro]]
C = C[C@@H]1NC(=O)[C@H](CO)NC(=O)[C@H](Cc2ccccc2)NC(=O)[C@H](Cc2ccccc2)NC(=O)[C@H](CCCNC(=N)N)NC(=O)[C@@H]2CCCN2C(=O)[C@H]2CCCN2C(=O)[C@H](Cc2ccccc2)NC1=O [Peptide 5, c[Pro-Arg-Phe-Phe-Ser-Ala-Phe-DPro]]
Rank ascending by EC50. Use the labels to give the ranking in the order requested.
A, C, B
